Experiment: Dissociation constant (pKa)
Format: physicochemical
measured quantity: pKa

| structure notation | pKa |
| --- | --- |
| Brc1cccc(Br)c1N(C1=NCCN1)C1CCCC1 | 11.2 |
| C=CCN(C1=NCCN1)c1c(Br)cccc1Br | 10.7 |
| Brc1ccc(Br)c(N(CC2CC2)C2=NCCN2)c1 | 11 |
| Brc1cccc(Br)c1N(Cc1ccco1)C1=NCCN1 | 10.5 |
| N=C(N)N(CC1CC1)c1c(Br)cccc1Br | 11.9 |
| CCN(C1=NCCN1)c1c(Br)cccc1Br | 11.1 |
| C=C(C)CCN(C1=NCCN1)c1c(Br)cccc1Br | 10.9 |
| Brc1cccc(N(CC2CC2)C2=NCCN2)c1Br | 11.1 |
| Brc1ccc(N(CC2CC2)C2=NCCN2)c(Br)c1 | 11.2 |
| C=CCCN(C1=NCCN1)c1c(Br)cccc1Br | 11.2 |
| CC(C)N(C1=NCCN1)c1c(Br)cccc1Br | 11.2 |
| Brc1cccc(Br)c1N(Cc1ccccc1)C1=NCCN1 | 10.4 |
| Brc1cccc(Br)c1N(C1=NCCN1)C1CCCCC1 | 11.3 |
| Brc1cccc(Br)c1N(CC1CCC1)C1=NCCN1 | 10.9 |
| Brc1cccc(Br)c1N(Cc1cccs1)C1=NCCN1 | 10.5 |
| CCCCCN(C1=NCCN1)c1c(Br)cccc1Br | 11 |
| Brc1cccc(Br)c1N(CC1CC1)C1=NCCCN1 | 12.4 |
| CN(C1=NCCN1)c1c(Br)cccc1Br | 10.7 |
| Fc1cccc(Br)c1N(CC1CC1)C1=NCCN1 | 10.7 |
| Fc1cccc(Cl)c1N(CC1CC1)C1=NCCN1 | 10.8 |
| CC(C)CN(C1=NCCN1)c1c(Br)cccc1Br | 11 |
| Brc1ccccc1N(CC1CC1)C1=NCCN1 | 11.2 |
| C#CCN(C1=NCCN1)c1c(Br)cccc1Br | 10.1 |
| CC(C)CCN(C1=NCCN1)c1c(Br)cccc1Br | 10.9 |
| Fc1cccc(F)c1N(CC1CC1)C1=NCCN1 | 10.3 |
| CCCN(C1=NCCN1)c1c(Br)cccc1Br | 11 |
| C=CCN(C1=NCCN1)c1c(Cl)cccc1Cl | 10.4 |
